measuredOn: MAP kinase-activated protein kinase 2 (Homo sapiens, UniProt P49137)
Sequence (P49137 whole entry): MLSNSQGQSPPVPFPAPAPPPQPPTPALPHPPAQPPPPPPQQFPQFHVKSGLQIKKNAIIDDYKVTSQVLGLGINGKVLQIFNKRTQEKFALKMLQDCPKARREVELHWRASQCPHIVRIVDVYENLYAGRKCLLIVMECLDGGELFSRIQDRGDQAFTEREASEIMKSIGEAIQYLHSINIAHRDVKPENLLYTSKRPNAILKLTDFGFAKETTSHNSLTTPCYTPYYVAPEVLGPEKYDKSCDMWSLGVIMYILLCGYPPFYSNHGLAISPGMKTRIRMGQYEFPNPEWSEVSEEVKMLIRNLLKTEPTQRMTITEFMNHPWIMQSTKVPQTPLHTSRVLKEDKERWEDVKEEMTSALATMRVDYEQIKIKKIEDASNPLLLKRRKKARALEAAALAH
protocol: Kinase reactions were started with the addition of 40 μL of MK-2 enzyme and monitored every 71 seconds for 30-240 minutes at λex360/λem485 in a Synergy2, Synergy4 or Synergy H4 plate reader from BioTek (Winooski, Vt.). […] Initial velocity (0 minutes to +30 minutes) from each reaction was estimated from the slope of a plot of relative fluorescence units vs time (minutes) and normalized to the no enzyme and no inhibitor control groups for % Inhibition. The resulting % Inhibition values were then plotted against inhibitor concentration to estimate IC50 from log[Inhibitor] vs Response, Variable Slope model in GraphPad Prism from GraphPad Software (San Diego, Calif.).
pEC50: −log10 of the molar value.
reportedProperty: pEC50

C=CC(=O)Nc1cc(-c2cc3c(ccc4c5c([nH]c43)CCC5=O)cn2)ccc1C: > 7.00

Below: the item to evaluate.
query: Given the entry C=CC(=O)Nc1cc(NC(=O)c2ccc3sc4c(c3c2)NC[C@@H](C)NC4=O)ccc1C1CCN(C)CC1 , report its measured pEC50.
result: > 7.00
